# test-target: FGFR1 (UniProt P11362)
# Sequence (P11362 whole entry, looked up): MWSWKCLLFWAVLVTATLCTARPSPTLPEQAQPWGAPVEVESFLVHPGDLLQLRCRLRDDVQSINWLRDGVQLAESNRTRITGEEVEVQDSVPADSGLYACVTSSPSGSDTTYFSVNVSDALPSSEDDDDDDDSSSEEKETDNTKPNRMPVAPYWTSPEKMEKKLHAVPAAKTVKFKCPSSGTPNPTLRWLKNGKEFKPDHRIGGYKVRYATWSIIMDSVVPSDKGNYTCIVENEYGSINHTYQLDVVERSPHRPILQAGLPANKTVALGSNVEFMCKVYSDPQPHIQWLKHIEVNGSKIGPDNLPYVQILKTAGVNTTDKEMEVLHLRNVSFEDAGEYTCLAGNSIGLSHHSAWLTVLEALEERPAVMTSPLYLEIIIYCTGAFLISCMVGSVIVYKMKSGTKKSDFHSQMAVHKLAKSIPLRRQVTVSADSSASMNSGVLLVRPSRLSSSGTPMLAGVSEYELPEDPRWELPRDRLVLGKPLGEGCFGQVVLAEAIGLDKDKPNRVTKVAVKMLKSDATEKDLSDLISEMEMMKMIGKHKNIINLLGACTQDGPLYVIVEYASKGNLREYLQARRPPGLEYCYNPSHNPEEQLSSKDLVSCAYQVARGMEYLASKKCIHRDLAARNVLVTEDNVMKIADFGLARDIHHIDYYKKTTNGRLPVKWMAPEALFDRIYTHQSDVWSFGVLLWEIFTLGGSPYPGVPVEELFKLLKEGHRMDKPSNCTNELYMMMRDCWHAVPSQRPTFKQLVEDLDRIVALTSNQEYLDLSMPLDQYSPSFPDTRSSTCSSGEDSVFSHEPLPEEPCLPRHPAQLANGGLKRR
# measurement-notes: phosphorylation enrichment, bacterial display (enrichment ratio); higher = better substrate or ligand; peptides without Tyr show the background;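 also: 11-residue human phosphosite peptides and single-mutation variants displayed on the E. coli surface, counted by deep sequencing, each peptide's frequency after selection divided by its frequency in the unselected input library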;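 also: frequency after pTyr selection over input frequency; kinase dosed for 20-30% of maximal phosphorylation in three min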
Rule: phosphorylation enrichment of 0.6 or more gives criterion met; anything lower gives criterion not met.

Does phosphorylation enrichment meet or surpass 0.6 for GRVFVYRLSEQ [ITGAE_Y551_YF] ?
criterion not met

Follow-up entry: SHNKYYMLVAR [MFSD8_Y134]
criterion met

Okay, and MTFQNYGQALF [FAM20C_Y279] ?
criterion not met

Proceed to RSSKMYPKTRS [LPL_Y329_L330P]
criterion not met

Field entry: NQILPYIEELV [PPP2R1B_Y341_K343E]
criterion not met

Next sequence up: RHTRSYDFTEG [FGF7_Y56_M59T_YF]
criterion not met

// repeat for EWLRRYLENGK [HLA-A_Y195] and report
criterion not met

Also need PAGSGYPAYLG [ATP6V1A_Y374_D371G] , thanks.
criterion met

Likewise for LAGRFYALKSM [CKB_Y174_YF] ?
criterion not met

Next up: EPAVLYNLKDR [MYH7_Y103]
criterion not met

Then LIFVSYDDWDF [GRIN2A_Y281_S278F_YF] ?
criterion met

Then this sequence: RHYVYYYSYLL [PTEN_Y177_R173H]
criterion met

Also RPFSPYIIRGM [LRP5_Y1531_R1529S_YF] ?
criterion met

For QKDTFYGLRSL [IGSF10_Y126] then?
criterion not met

And then SSMSDYNPLEK [MYOC_Y479_I477S] , what is it?
criterion not met

How about GVRFIYTIDGS [DCX_Y105_YF] ?
criterion not met

Ok, now KALSLYTKLMN [STAM_Y371_E366K]
criterion not met

// repeat for ARAHKYHGGGG [HBB_Y146_L142R] and report
criterion not met

Next sequence up: SDVCMYRKNIF [SYNE2_Y570_YF]
criterion not met

Would you mind doing QQMGTYGVRAA [ICAM2_Y260_R256Q] as well?
criterion not met

Consider next the sequence VHNLNYFKKTT [FGFR3_Y647_D646N_YF] in the same way.
criterion not met

Moving on to WFQTKYEELQI [KRT6B_Y360_YF]
criterion not met

Quick one: LKRIAYFLCLL [LGI1_Y21]
criterion met

How about this sequence: NKVKFYIPDMN [NCR1_Y84]
criterion not met

Then this sequence: YGMQLYQKYMH [GRB14_Y347_N349K]
criterion not met

Same thing, different sequence: HTDDGYMPMSP [IRS1_Y612]
criterion met

Query EDGCIYPATIA [SMN1_Y109] next
criterion not met

What do we get for SSENPYATIKD [MEGF10_Y1030] ?
criterion not met

----------
Assignment: determine reported phosphorylation enrichment for the given sequences.
# test-target: MERTK (UniProt Q12866)
# Sequence (Q12866 whole entry, looked up): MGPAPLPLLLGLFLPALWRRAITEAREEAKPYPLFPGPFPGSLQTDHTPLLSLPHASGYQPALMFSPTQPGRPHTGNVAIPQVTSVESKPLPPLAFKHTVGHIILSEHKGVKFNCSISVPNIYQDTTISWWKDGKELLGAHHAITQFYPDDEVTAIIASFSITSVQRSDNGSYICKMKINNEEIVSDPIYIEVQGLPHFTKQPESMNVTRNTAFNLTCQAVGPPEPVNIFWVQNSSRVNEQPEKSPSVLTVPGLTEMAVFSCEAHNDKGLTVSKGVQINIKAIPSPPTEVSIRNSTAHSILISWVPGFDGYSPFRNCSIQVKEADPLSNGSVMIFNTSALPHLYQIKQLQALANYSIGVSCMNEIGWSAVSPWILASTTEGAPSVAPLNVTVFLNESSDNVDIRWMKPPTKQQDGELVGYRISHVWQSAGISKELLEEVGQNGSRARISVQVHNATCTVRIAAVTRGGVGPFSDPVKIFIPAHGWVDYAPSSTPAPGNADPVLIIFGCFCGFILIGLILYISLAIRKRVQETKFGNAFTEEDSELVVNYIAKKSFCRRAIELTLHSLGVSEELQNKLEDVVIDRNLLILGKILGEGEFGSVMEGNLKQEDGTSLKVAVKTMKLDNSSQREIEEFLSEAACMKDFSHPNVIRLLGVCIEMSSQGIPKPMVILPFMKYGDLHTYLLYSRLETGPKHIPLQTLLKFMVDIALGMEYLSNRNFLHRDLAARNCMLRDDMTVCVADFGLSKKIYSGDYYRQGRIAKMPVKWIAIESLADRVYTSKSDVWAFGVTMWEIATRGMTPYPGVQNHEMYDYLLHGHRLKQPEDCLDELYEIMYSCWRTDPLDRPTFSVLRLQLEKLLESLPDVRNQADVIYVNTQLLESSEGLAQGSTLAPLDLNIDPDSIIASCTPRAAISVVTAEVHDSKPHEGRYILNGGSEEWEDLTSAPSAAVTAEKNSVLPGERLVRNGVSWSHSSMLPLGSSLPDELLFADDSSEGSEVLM
# measurement-notes: phosphorylation enrichment, bacterial display (enrichment ratio); higher = better substrate or ligand; peptides without Tyr show the background

Form field - read-out: phosphorylation enrichment; system: MERTK (UniProt Q12866); submitted item: TRSFDYTEGGD [FGF7_Y58_M59T_YF]
0.503

FPPDGYSRHCE [CTNND1_Y213_Y217C_YF] ?
0.383

Please do the same for AEFGLYGAMVW [VSX2_Y222_R227W_YF] as well.
1.06

Repeat with FSPFDYQPCLA [TNS1_Y798_YF]
0.538

Next: EEGNPYYSGAR [MCCC2_Y520_S523G]
0.449

Next sequence: HLQQSYLPRGT [TEX45_Y396]
0.66

Next entry: FMYKVYSDPQP [FGFR1_Y280_C277Y]
0.5

Try PIYLYYLMDLS [ITGB2_Y131_D128Y] next.
11.1

Ok, now DPFHVYIKNRV [KCNE3_Y95_YF]
0.369

Cool, now ERTIEYLEEVA [HADHA_Y239]
0.541

Also CTTIHYNFKCN [TP53_Y234_M237K_YF] ?
0.425

Another sequence to look at: RIFDFYSARKT [STOX1_Y858_A863T_YF]
0.595

Same thing, different sequence: PVGVLYEVKVY [PTS_Y128_K129E]
0.55

Same question for SLMNQYVNKKF [RAB7A_Y28] please.
0.315

FRRITYFNWRH [PDE6B_Y556_H557Y_YF] ?
0.615

Proceed to SPLTDYSPQLQ [OTC_Y345_L341P]
0.479

Next: FKEVVYQAMEE [TACC3_Y684_E680K]
1.62

Likewise for TIQRMYGCDVG [HLA-A_Y123_I121R] ?
0.448

Can you handle TEAGNYKLCFD [TMED1_Y103_D102N] next?
0.453

Here is the next sequence: EQLGEYKFQNA [ALB_Y425]
0.324

Proceed to SSNLFYRWLTA [CNGA3_Y169_YF]
0.532

Can you handle SLGKGYSDGGC [MC4R_Y35] next?
0.392

// next record LGGAMYYLEAE [PKHD1_Y452]
1.74

Note, next up: APVEDYGGGGG [B4GALT6_Y382_I379V]
0.418

Query DLNATYRTIQG [U2SURP_Y634] next
0.473

Follow-up item: PGAPAYRVLME [MYO5A_Y1245]
0.566

Do the same for VVAHQYSFAPD [TNS3_Y601] please
0.414

Also SVTCTYSPARN [TP53_Y126_L130R] , if possible.
0.449

Entry to check: IGEGTSGVVFK [CDK2_Y15_Y15S_YF]
0.409
